# pIC50 per record follows
# SYSTEM: HLA DQ molecule DQB1*0502 (human)
# METHOD_NOTES: inhibition of radiolabeled peptide binding to purified HLA class II
pIC50: −log10 of the molar value.
PROPERTY_MEASURED: pIC50

| BINDER | PROPERTY_MEASURED | EXPERIMENTAL_VALUE |
| --- | --- | --- |
| QVAQYKALPVVLENA [Fel d 1 1 (46-60) peptide QVAQYKALPVVLENA, Peptide ID 3324.1051] | pIC50 | 6.26 |
| QIDAFIANAGATADS [Cla h 8 (101-115) peptide QIDAFIANAGATADS, Peptide ID 3324.0601] | pIC50 | 6.09 |
| GSCWAFSGVAATESA [Der f 1 (131-145) peptide GSCWAFSGVAATESA, Peptide ID 3324.0670] | pIC50 | 5.03 |
| PAVKYIEPDMIVNAT [Pen ch 13 (101-115) peptide PAVKYIEPDMIVNAT, Peptide ID 3324.1304] | pIC50 | 5.71 |
| GCIHMARSLANEWRD [Cla h 8 (181-195) peptide GCIHMARSLANEWRD, Peptide ID 3324.0602] | pIC50 | 6.17 |
